method-notes: Clearance in healthy human at 1500 mg, iv administered as 1 hr infusion every 12 hrs for 10 days measured on day 1
Type: ADME, organism-based
condition-info: in vivo
attribute-measured: clearance (mL/min)
Quick reminder: number only, in mL/min, skip the unit.

clearance in this record for `Cn1c(N)c(NC(=O)NCCN)c[n+]1CC1=C(C(=O)O)N2C(=O)[C@@H](NC(=O)/C(=N\OC(C)(C)C(=O)[O-])c3nsc(N)n3)[C@H]2SC1` : 114

###

method-notes: Tmax in healthy human at 500 mg, iv administered as 1 hr infusion every 8 hrs for 10 days measured on day 1
Assay type: ADME, organism-based
condition-info: in vivo
attribute-measured: Tmax (h)
Form entry: value (h) — number only.

compound `Cn1c(N)c(NC(=O)NCCN)c[n+]1CC1=C(C(=O)O)N2C(=O)[C@@H](NC(=O)/C(=N\OC(C)(C)C(=O)[O-])c3nsc(N)n3)[C@H]2SC1` , Tmax observed: 1.03

###

method-notes: Renal clearance in healthy human at 500 mg, iv administered as 1 hr infusion every 8 hrs for 10 days measured on day 1
Format: ADME, organism-based, Kidney
condition-info: in vivo, read-out: CL_renal
attribute-measured: CL renal (mL/min)
Numeric only. Scale: mL/min

Value of CL renal reported for the compound `Cn1c(N)c(NC(=O)NCCN)c[n+]1CC1=C(C(=O)O)N2C(=O)[C@@H](NC(=O)/C(=N\OC(C)(C)C(=O)[O-])c3nsc(N)n3)[C@H]2SC1` is 78.4

###

method-notes: Drug recovery in urine of healthy human at 1000 mg, iv administered as 1 hr infusion every 8 hrs for 10 days measured on day 10
Format: ADME, organism-based
condition-info: read-out: Activity
attribute-measured: dose excreted at 10 day (%)
# number only, unit % dropped from output

For this compound ( `Cn1c(N)c(NC(=O)NCCN)c[n+]1CC1=C(C(=O)O)N2C(=O)[C@@H](NC(=O)/C(=N\OC(C)(C)C(=O)[O-])c3nsc(N)n3)[C@H]2SC1` ), measured dose excreted at 10 day is 94.1

###

method-notes: Cmax in healthy human at 1500 mg, iv administered as single dose as 1 hr iv infusion
Assay type: ADME, organism-based
Set-up: dose 1500 mg, route intravenous
condition-info: in vivo
attribute-measured: Cmax (µg/mL)
# number only, unit µg/mL dropped from output

Measured Cmax of `Cn1c(N)c(NC(=O)NCCN)c[n+]1CC1=C(C(=O)O)N2C(=O)[C@@H](NC(=O)/C(=N\OC(C)(C)C(=O)[O-])c3nsc(N)n3)[C@H]2SC1` : 87.4

###

method-notes: AUC (0 to infinity) in healthy human at 250 mg, iv administered as single dose as 1 hr iv infusion
Type: ADME, organism-based
Parameters: dose 250 mg, route intravenous, time infinity
condition-info: plasma
attribute-measured: AUC(0-inf) (ng·h/mL)
All answers are understood in ng·h/mL, so give the number only.

Record `Cn1c(N)c(NC(=O)NCCN)c[n+]1CC1=C(C(=O)O)N2C(=O)[C@@H](NC(=O)/C(=N\OC(C)(C)C(=O)[O-])c3nsc(N)n3)[C@H]2SC1` , field AUC(0-inf): 40100

###

method-notes: Volume of distribution at steady state in healthy human at 500 mg, iv administered as 1 hr infusion every 8 hrs for 10 days measured on day 1
Format: ADME, organism-based
condition-info: in vivo
attribute-measured: Vd (L)
Quick reminder: number only, in L, skip the unit.

Lab book: Vd of `Cn1c(N)c(NC(=O)NCCN)c[n+]1CC1=C(C(=O)O)N2C(=O)[C@@H](NC(=O)/C(=N\OC(C)(C)C(=O)[O-])c3nsc(N)n3)[C@H]2SC1` noted as 13.8

###

method-notes: Tmax in healthy human at 1000 mg, iv administered as 1 hr infusion every 8 hrs for 10 days measured on day 1
Assay type: ADME, organism-based
condition-info: in vivo
attribute-measured: Tmax (h)
A number alone suffices; assume h.

Given item `Cn1c(N)c(NC(=O)NCCN)c[n+]1CC1=C(C(=O)O)N2C(=O)[C@@H](NC(=O)/C(=N\OC(C)(C)C(=O)[O-])c3nsc(N)n3)[C@H]2SC1` , the value recorded as its Tmax is 1.03

###

method-notes: Clearance in healthy human at 1500 mg, iv administered as 1 hr infusion every 12 hrs for 10 days measured on day 10
Format: ADME, organism-based
condition-info: in vivo
attribute-measured: clearance (mL/min)
The figure you give is taken to be in mL/min; do not add the unit.

For reference, reported clearance for Cn1c(N)c(NC(=O)NCCN)c[n+]1CC1=C(C(=O)O)N2C(=O)[C@@H](NC(=O)/C(=N\OC(C)(C)C(=O)[O-])c3nsc(N)n3)[C@H]2SC1 [CEFTOLOZANE] stands at 121

###

method-notes: Tmax in healthy human at 1000 mg, iv administered as single dose as 1 hr iv infusion
Type: ADME, organism-based
condition-info: in vivo
attribute-measured: Tmax (h)
// units = h; emit number, no label

Please fill in: Tmax reported for `Cn1c(N)c(NC(=O)NCCN)c[n+]1CC1=C(C(=O)O)N2C(=O)[C@@H](NC(=O)/C(=N\OC(C)(C)C(=O)[O-])c3nsc(N)n3)[C@H]2SC1` = 1.05

###

method-notes: Renal clearance in healthy human at 1500 mg, iv administered as single dose as 1 hr iv infusion
Format: ADME, organism-based, Kidney
condition-info: in vivo, read-out: CL_renal
attribute-measured: CL renal at 1 h (mL/min)
A number alone suffices; assume mL/min.

Entry under test: `Cn1c(N)c(NC(=O)NCCN)c[n+]1CC1=C(C(=O)O)N2C(=O)[C@@H](NC(=O)/C(=N\OC(C)(C)C(=O)[O-])c3nsc(N)n3)[C@H]2SC1` . Its CL renal at 1 h was 96.2

###

method-notes: Half-life in plasma of healthy human 1000 mg, iv administered as 1 hr infusion every 8 hrs for 10 days measured on day 10
Assay type: ADME, organism-based
attribute-measured: half-life (h)
Quick note: give the figure in h, leave out the unit.

Recorded half-life (compound `Cn1c(N)c(NC(=O)NCCN)c[n+]1CC1=C(C(=O)O)N2C(=O)[C@@H](NC(=O)/C(=N\OC(C)(C)C(=O)[O-])c3nsc(N)n3)[C@H]2SC1` ): 2.69

###

method-notes: Renal clearance in healthy human at 1000 mg, iv administered as single dose as 1 hr iv infusion
Type: ADME, organism-based, Kidney
condition-info: in vivo, read-out: CL_renal
attribute-measured: CL renal at 1 h (mL/min)
Give the number; mL/min is assumed, so skip it.

Form field CL renal at 1 h, entry `Cn1c(N)c(NC(=O)NCCN)c[n+]1CC1=C(C(=O)O)N2C(=O)[C@@H](NC(=O)/C(=N\OC(C)(C)C(=O)[O-])c3nsc(N)n3)[C@H]2SC1` : 93.4
